Ref: ChEMBL document CHEMBL1133674

Assay: Apical to basolateral fluxes across Caco-2 cell monolayers at 37 degree celsius was studied.
Format: ADME, organism-based
Conditions: human, read-out: Permeability
Residues, ends and D or L forms follow the SMILES beside them.
Classify by measured Papp A→B: label 1 if it is equal to or exceeds 0.5 ×10⁻⁶ cm/s, label 0 if it is smaller.

COMPOUND	DISCRETE_LABEL
O=C(O)[C@H](Cc1ccccc1)NC(=O)[C@@H]1CCCN1 (H-Pro-Phe-OH)	label 1
O=C(N[C@@H](Cc1ccccc1)C(=O)NCCC(O)(P(=O)(O)O)P(=O)(O)O)[C@@H]1CCCN1 (stereo in doubt; form 2)	label 0
O=C(N[C@@H](Cc1ccccc1)C(=O)NCCCC(O)(P(=O)(O)O)P(=O)(O)O)[C@@H]1CCCN1 (stereo in doubt; form 1)	label 0
OC[C@@H](O)[C@@H](O)[C@H](O)[C@H](O)CO	label 0
O=C(N[C@@H](Cc1ccccc1)C(=O)NCCCC(O)(P(=O)(O)O)P(=O)(O)O)[C@@H]1CCCN1 (stereo in doubt; form 2)	label 1

# ---- query compound ----
Item NCCC(O)(P(=O)(O)O)P(=O)(O)O with Papp A→B of 0.5 ×10⁻⁶ cm/s or above? label 0

---

Listed next: entries and their corresponding Permeability.
Organism: Homo sapiens
Test: Basolateral to apical fluxes across Caco-2 cell monolayers at 37 degree celsius was studied.
Type: ADME, organism-based
Quick reminder: number only, in cm/s, skip the unit.

Look over these answered cases.
COMPOUND	UNIT_TEXT	Permeability
O=C(N[C@@H](Cc1ccccc1)C(=O)NCCC(O)(P(=O)(O)O)P(=O)(O)O)[C@@H]1CCCN1 (stereo in doubt; form 1)	cm/s	4.1e-07
O=C(N[C@@H](Cc1ccccc1)C(=O)NCCCC(O)(P(=O)(O)O)P(=O)(O)O)[C@@H]1CCCN1 (stereo in doubt; form 2)	cm/s	5.5e-07
O=C(N[C@@H](Cc1ccccc1)C(=O)NCCC(O)(P(=O)(O)O)P(=O)(O)O)[C@@H]1CCCN1 (stereo in doubt; form 2)	cm/s	9e-08

For reference, reported Permeability for O=C(N[C@@H](Cc1ccccc1)C(=O)NCCCC(O)(P(=O)(O)O)P(=O)(O)O)[C@@H]1CCCN1 (stereo in doubt; form 1) stands at 1.6e-07

---

Assay: Inhibition of HAP formation, by the compound (1.0 mM) absorbed, was obtained in vitro studies.*: p<0.05
Conditions: 1000 µM
Listed next: entries and their corresponding Initial concentration.
Put your answer as a value accompanied by its unit after it.

MOLECULE	Initial concentration
NCCC(O)(P(=O)(O)O)P(=O)(O)O	46.9%

Next molecule, Initial concentration to be filled in.
For reference, reported Initial concentration for O=C(N[C@@H](Cc1ccccc1)C(=O)NCCC(O)(P(=O)(O)O)P(=O)(O)O)[C@@H]1CCCN1 (stereo in doubt; form 2) stands at 40.5%
